For each entry below, report its solubility kinetic value.
applied.conditions: buffer; pH 7.4; 200.0 µM

Recorded solubility kinetic (molecule CC(Sc1nccn1C)C(=O)Nc1ccc(Cl)cn1 (stereo not given) ): > 44.5 µg/mL

Sure, the documented solubility kinetic for Cc1ccc(C(=O)Nc2ccccc2N2CCCC2)cc1 is 31.4 µg/mL

In plain terms, CCN(CC)S(=O)(=O)N1CCC(C(=O)NCc2ccco2)CC1 has a documented solubility kinetic of > 51.5 µg/mL

For this molecule ( O=C(O)c1ccc(SCc2ccccc2)nc1 ), measured solubility kinetic is > 36.8 µg/mL

solubility kinetic for Cc1ccc(S(=O)(=O)N2CCC(C(=O)OCC(=O)NCc3cccc(Cl)c3)CC2)cc1C is 11 µg/mL

solubility kinetic recorded for this molecule, CC(C)(C)NC(=O)COc1ccc2oc3c(c2c1)CCCC3 , is 2.2 µg/mL

The recorded solubility kinetic for S=C(NCCc1ccccc1)Nc1c(Cl)cccc1Cl is 44.3 µg/mL

For record CCOc1ccc(NC(=O)CN(C)C(=O)c2ccncc2)cc1OCC the listed solubility kinetic is > 53.6 µg/mL

The molecule listed as COc1ccccc1NC(=O)CN1CCCCCC1 has a reported solubility kinetic of 24.3 µg/mL

The reported solubility kinetic of the molecule CCOC(=O)C1CCN(C(=O)c2cc3cc(C)ccc3[nH]2)CC1 was 37 µg/mL

# molecule O=C1C2C3C=CC(C3)C2C(=O)N1Nc1ccccc1 (stereo not given) ; its solubility kinetic = > 38.1 µg/mL

Summary for this molecule, O=C(NC1CC1)c1cc2ccccc2o1 : solubility kinetic is > 30.2 µg/mL

Value of measured solubility kinetic for the entry CCOc1ccc(CNc2ccc(N3CCN(Cc4ccccc4)CC3)cc2)cc1 : 0.9 µg/mL

solubility kinetic measured on CCOc1ccc2nc(NC(=O)c3ccc(C)o3)sc2c1 = 0.6 µg/mL

Measured solubility kinetic of CC1CCCC(NC(=O)Cn2c(Cl)nc3c2c(=O)n(C)c(=O)n3C)C1C (stereo not given) : > 57.3 µg/mL

* * *

Kindly state solubility kinetic for each of the entries shown.
applied.conditions: buffer; pH 7.4; 200.0 µM
Entry rule: numbers only, all in µg/mL.

Short answer for O=C(Cc1cccs1)N1CCN=C1SCc1ccccc1Cl : solubility kinetic was 6.6

Entry O=C(c1ccccc1)N1CCSc2sccc2C1=O — recorded solubility kinetic = 37.5

The compound identified as Cc1cc(C)n(CC(=O)NC2CCCCC2C)c(=O)c1C#N (stereo not drawn) registered its solubility kinetic at 16.7

What the record says about N#Cc1ccc(N=c2ssnc2Cl)cc1 : solubility kinetic is 4.2

Please fill in: solubility kinetic reported for O=C1c2oc3ccccc3c(=O)c2C(c2ccc(O)cc2)N1c1nccs1 (stereo not drawn) = 0.8

Recorded result, COc1ccc(CNc2nc3ccccc3n2C(C)C)cc1 , solubility kinetic: 5.7

Record CC(C)Oc1ccc(C(=O)NCCCNC(=O)c2ccccn2)cc1 , field solubility kinetic: 48.6

* * *

applied.conditions: buffer; pH 7.4; 200.0 µM
endpoint.label: solubility kinetic

Lab note: Cc1nc(SCc2cccc(C(=O)O)c2)nc2c1CCCC2 gave solubility kinetic of > 47.2 µg/mL

Given item Cc1ccc(NC(=O)c2ccc(NC(=O)C3CCCCC3C(=O)O)cc2)cc1 (stereo unspecified) , the value recorded as its solubility kinetic is > 57.1 µg/mL

Given item CCC(C)C(NC(N)=O)C(=O)Nc1ccc(C(=O)OC)cc1 (stereo unspecified) , the value recorded as its solubility kinetic is > 46.1 µg/mL

Recorded solubility kinetic (compound Cc1ccc(NS(=O)(=O)c2cc(C(=O)N(C)C3CCN(C)CC3)ccc2Cl)cc1Cl.O=C(O)C(=O)O ): > 84.1 µg/mL

For record Cc1cc(C(=O)Nc2ccon2)c(C)o1 the listed solubility kinetic is > 30.9 µg/mL

Lookup result for O=S(=O)(c1cccc(-c2n[nH]c(=S)n2-c2ccccc2Cl)c1)N1CCOCC1 ; measured solubility kinetic: > 65.5 µg/mL
